# subject.of.test: Glutamate receptor ionotropic, AMPA (Rattus norvegicus, UniProt P19490+P19491+P19492+P19493)
readout.name: pIC50
Note on pIC50: it is the negative log10 of concentration, concentration in mol/L.

According to the records, this molecule O=P(O)(O)c1cn2c3c(nc(O)c2n1)-c1cccc(Cc2nn[nH]n2)c1C3 displays pIC50 of 8.22

----------
# subject.of.test: Glutamate NMDA receptor
# method.summary: In vitro binding affinity towards NMDA glutamate receptor using [3H]5,7-dichlorokynurenate as ligand on rat cortical membrane preparations
One threshold, 2 µM, splits the recorded IC50 values: lower ones are condition met, equal or higher ones are condition not met.

# TODO verify IC50 < 2 µM strictly for this compound: O=C(O)Cc1cccc2c1Cc1c-2nc(O)c2nc(P(=O)(O)O)cn12
condition not met

Given the entry O=P(O)(O)c1cn2c3c(nc(O)c2n1)-c1cccc(Cc2nn[nH]n2)c1C3 , would its reported IC50 be below 2 µM?
condition not met

# check: IC50 < 2 µM for O=C(O)CCc1cn2c3c(nc(O)c2n1)-c1cccc(CC(=O)O)c1C3
condition met

# TODO verify IC50 < 2 µM strictly for this compound: O=C(O)Cc1cccc2c1Cc1c-2nc(O)c2nc(-c3cccc(C(=O)O)c3)cn12
condition not met

Quick check: does CS(=O)(=O)NC(=O)Cc1cccc2c1Cc1c-2nc(O)c2nc(C(=O)O)cn12 have IC50 under 2 µM?
condition met

Hello, is IC50 of the following compound strictly smaller than 2 µM? O=C(O)c1cn2c3c(nc(O)c2n1)-c1cccc(CP(=O)(O)O)c1C3
condition not met

In the record for O=C(O)c1cn2c3c(nc(O)c2n1)-c1cccc(Cc2nn[nH]n2)c1C3 , is IC50 less than 2 µM?
condition met

Report whether reported IC50 is lower than 2 µM (strictly) for CNC(=O)Cc1cccc2c1Cc1c-2nc(O)c2nc(C(=O)O)cn12
condition met

Quick check: IC50 of O=C(O)Cc1cccc2c1Cc1c-2nc(O)c2nc(-c3ccc(C(=O)O)cc3)cn12 under 2 µM?
condition not met

is_below(IC50, 2 µM) for O=C(O)/C=C/c1cn2c3c(nc(O)c2n1)-c1cccc(CC(=O)O)c1C3 ?
condition not met

Confirm or reject: IC50 of O=C(O)Cc1cccc2c1Cc1c-2nc(O)c2nc(CP(=O)(O)O)cn12 lies strictly below 2 µM
condition not met

Field: below-cutoff. Rule: recorded IC50 strictly less than 2 µM. Subject: O=C(O)Cc1cccc2c1Cc1c-2nc(O)c2nc(-c3ccccc3C(=O)O)cn12
condition not met

----------
# subject.of.test: Glutamate receptor ionotropic, AMPA (Rattus norvegicus, UniProt P19490+P19491+P19492+P19493)
I'd appreciate it if you marked entries condition met when IC50 is lower than 100 nM and condition not met when it is not.

Lab log: compare recorded IC50 with 100 nM; is it strictly lower for O=P(O)(O)c1cn2c3c(nc(O)c2n1)-c1cccc(Cc2nn[nH]n2)c1C3 ?
condition met

In plain terms, does O=C(Cc1cccc2c1Cc1c-2nc(O)c2nc(C(=O)O)cn12)NS(=O)(=O)c1ccccc1 come in under 100 nM for IC50?
condition not met

State whether 100 nM exceeds IC50 recorded for CNC(=O)Cc1cccc2c1Cc1c-2nc(O)c2nc(C(=O)O)cn12 .
condition not met

Is IC50 of O=C(O)/C=C/c1cn2c3c(nc(O)c2n1)-c1cccc(CC(=O)O)c1C3 strictly below 100 nM?
condition met

Consider the compound O=C(O)Cc1cccc2c1Cc1c-2nc(O)c2nc(CP(=O)(O)O)cn12 . Is its IC50 strictly less than 100 nM?
condition not met

Cited source: ChEMBL document CHEMBL1133991
